testedTarget: HIV-1 Env of isolate MGRM-A-002 (pseudovirus) (HIV-1)
assayExplanation: cell-based or functional assay

binder	IC50 (µg/mL), pseudovirus neutralization
PGT-125 (5123_A06) (antibody, V domains shown) VH: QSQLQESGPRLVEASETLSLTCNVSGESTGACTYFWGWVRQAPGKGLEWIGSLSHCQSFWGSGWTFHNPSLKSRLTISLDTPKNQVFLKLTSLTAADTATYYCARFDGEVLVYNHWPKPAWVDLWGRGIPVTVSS VL: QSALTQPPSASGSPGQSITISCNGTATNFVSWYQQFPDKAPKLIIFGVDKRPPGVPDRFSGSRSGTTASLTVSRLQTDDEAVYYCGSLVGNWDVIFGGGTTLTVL	0.013
PGT-127 (5145_B14) (antibody, V domains shown) VH: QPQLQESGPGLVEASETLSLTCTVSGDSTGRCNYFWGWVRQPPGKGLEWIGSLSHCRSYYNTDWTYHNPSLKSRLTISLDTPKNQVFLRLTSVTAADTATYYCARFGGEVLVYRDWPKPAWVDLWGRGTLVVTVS VL: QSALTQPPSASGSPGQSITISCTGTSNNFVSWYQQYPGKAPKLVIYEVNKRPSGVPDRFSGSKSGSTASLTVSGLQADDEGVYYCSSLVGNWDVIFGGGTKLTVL	9.42
PGT-123 (4858_P08) (antibody, V domains shown) VH: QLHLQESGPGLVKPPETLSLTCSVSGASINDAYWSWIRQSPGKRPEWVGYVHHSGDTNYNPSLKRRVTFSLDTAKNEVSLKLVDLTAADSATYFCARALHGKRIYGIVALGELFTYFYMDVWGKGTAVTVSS VL: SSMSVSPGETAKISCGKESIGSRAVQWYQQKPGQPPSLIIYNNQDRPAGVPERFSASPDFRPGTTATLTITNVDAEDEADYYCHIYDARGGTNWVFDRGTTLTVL	0.011
